Test system: mouse colon carcinoma (CT-26) cells
Assay: (Photo-)cytotoxicity on 2D cell monolayers, resazurin assay, CT-26
Settings: read-out: IC50 dark; CT-26, dark; 4 h incubation; compounds 1-3 as chloride salts
pIC50: −log10 of the molar value.
The following molecules are shown together with reported pIC50 values.
OUTCOME_MEASURE: pIC50

N.N.[Cl][Pt][Cl] [cisplatin, reference compound]: 5.19
COc1ccc(C=Cc2ccnc(-c3cc(C=Cc4ccc(OC)cc4)ccn3)c2)cc1.F[P-](F)(F)(F)(F)F.F[P-](F)(F)(F)(F)F.[Ru+2].c1ccc(-c2ccnc3c2ccc2c(-c4ccccc4)ccnc23)cc1.c1ccc(-c2ccnc3c2ccc2c(-c4ccccc4)ccnc23)cc1: 5.07
